Read-out: Intercellular Adhesion Molecule 1 (ICAM1), ICAM1 (gene 3383)
Assay Notes: LTEA_HepaRG_ICAM1: Life Technologies and Expression Analysis (LTEA) Assay for Intercellular Adhesion Molecule 1 (ICAM1) using HepaRG (AID 2283507)
Test Settings: mRNA level, 48 h; actives raise or lower the signal
Active and inactive are the calls of the source. Rule for the calls: active = hit-call score of the fitted dose curve at least 0.9, where 1 is the maximum; inactive = score below 0.9.
Outcome codes: true (active), false (inactive)

1. CC(COc1ccc(Oc2ccccc2)cc1)Oc1ccccn1 (stereo not drawn) = false
2. CC1=NNC(=O)N(/N=C/c2cccnc2)C1 = false
3. CCCSP(=O)(OCC)SCCC = false
4. CON=C(C(=O)OC)c1ccccc1CON=C(C)c1cccc(C(F)(F)F)c1 = false
5. CN(C)C(=O)Nc1cccc(C(F)(F)F)c1 = false
6. CCOP(=O)(SC(C)CC)N1CCSC1=O (stereo not drawn) = false
7. CSc1nc(NC(C)C)nc(NC(C)C)n1 = false
8. COP(=O)(OC)SCn1c(=O)oc2cc(Cl)cnc21 = false
9. CC1(C(=O)Nc2ccc(O)c(Cl)c2Cl)CCCCC1 = false
10. CC(C1CC1)C(O)(Cn1cncn1)c1ccc(Cl)cc1 (stereo not drawn) = false
11. CCOC(=O)COc1cc(-c2nn(C)c(OC(F)F)c2Cl)c(F)cc1Cl = false
12. C=C(C)[C@H]1Cc2c(ccc3c2O[C@@H]2COc4cc(OC)c(OC)cc4[C@@H]2C3=O)O1 = true
13. CC(Oc1cccc(Cl)c1)C(=O)O (stereo not drawn) = false
14. C[N+]1(C)CCCCC1 = false
15. CCOP(=S)(OCC)SCCSCC = false
16. CCCCN(CC)c1c([N+](=O)[O-])cc(C(F)(F)F)cc1[N+](=O)[O-] = false
17. CNC(=O)ON=C(C)SC = false
18. CCc1cnc(C2=NC(C)(C(C)C)C(=O)N2)c(C(=O)O)c1 (stereo not drawn) = false
19. CN(C)[C@@H]1C(=O)C(C(N)=O)=C(O)[C@@]2(O)C(=O)C3=C(O)c4c(O)cccc4[C@@](C)(O)[C@H]3[C@H](O)[C@@H]12 = false
20. O=[N+]([O-])c1cc(C(F)(F)F)c(Cl)c([N+](=O)[O-])c1Nc1ncc(C(F)(F)F)cc1Cl = false
21. CCOC(=O)CC(SP(=O)(OC)OC)C(=O)OCC (stereo not drawn) = false
22. CC(C)N(C(=O)SCC(Cl)=C(Cl)Cl)C(C)C = false
23. CN(C)NC(=O)CCC(=O)O = false
24. C#CCC1=C(C)C(OC(=O)C2C(C=C(C)C)C2(C)C)CC1=O (stereo not drawn) = false
25. Nc1c(Cl)cc([N+](=O)[O-])cc1Cl = false
26. O=C(O)c1cc(Oc2ccc(C(F)(F)F)cc2Cl)ccc1[N+](=O)[O-] = false
27. CC(=NC#N)N(C)Cc1ccc(Cl)nc1 = false
28. COP(=O)(OC)OC(Br)C(Cl)(Cl)Br (stereo not drawn) = false
29. O=c1ccc(=O)[nH][nH]1 = false
30. CC(C)[C@H](C(=O)O[C@H](C#N)c1cccc(Oc2ccccc2)c1)c1ccc(Cl)cc1 = false
31. CCOP(=S)(OCC)Oc1cc(C)nc(C(C)C)n1 = false
32. CCCOCC(=Nc1ccc(Cl)cc1C(F)(F)F)n1ccnc1 = true
33. CCCCSP(=O)(SCCCC)SCCCC = false
34. CCOP(=O)(OCC)Oc1cc(C)nc(C(C)C)n1 = false
35. COc1cc(OC)nc(Sc2cccc(Cl)c2C(=O)O)n1 = false
36. Nc1nc(N)nc(NC2CC2)n1 = false
37. Cc1nn(-c2cc(NS(C)(=O)=O)c(Cl)cc2Cl)c(=O)n1C(F)F = false
38. Cc1ccn2nc(S(=O)(=O)Nc3c(F)cccc3F)nc2n1 = false
